biological target: human TLR2 (Homo sapiens, UniProt O60603); construct: expressed in transfected cells; host or cells: HEK-Blue hTLR2; experiment: HEK-Blue hTLR2 Dose Response (NF-κB SEAP reporter); format: cell-based; settings: 0.49 pg/mL
Sequence (O60603 21-784): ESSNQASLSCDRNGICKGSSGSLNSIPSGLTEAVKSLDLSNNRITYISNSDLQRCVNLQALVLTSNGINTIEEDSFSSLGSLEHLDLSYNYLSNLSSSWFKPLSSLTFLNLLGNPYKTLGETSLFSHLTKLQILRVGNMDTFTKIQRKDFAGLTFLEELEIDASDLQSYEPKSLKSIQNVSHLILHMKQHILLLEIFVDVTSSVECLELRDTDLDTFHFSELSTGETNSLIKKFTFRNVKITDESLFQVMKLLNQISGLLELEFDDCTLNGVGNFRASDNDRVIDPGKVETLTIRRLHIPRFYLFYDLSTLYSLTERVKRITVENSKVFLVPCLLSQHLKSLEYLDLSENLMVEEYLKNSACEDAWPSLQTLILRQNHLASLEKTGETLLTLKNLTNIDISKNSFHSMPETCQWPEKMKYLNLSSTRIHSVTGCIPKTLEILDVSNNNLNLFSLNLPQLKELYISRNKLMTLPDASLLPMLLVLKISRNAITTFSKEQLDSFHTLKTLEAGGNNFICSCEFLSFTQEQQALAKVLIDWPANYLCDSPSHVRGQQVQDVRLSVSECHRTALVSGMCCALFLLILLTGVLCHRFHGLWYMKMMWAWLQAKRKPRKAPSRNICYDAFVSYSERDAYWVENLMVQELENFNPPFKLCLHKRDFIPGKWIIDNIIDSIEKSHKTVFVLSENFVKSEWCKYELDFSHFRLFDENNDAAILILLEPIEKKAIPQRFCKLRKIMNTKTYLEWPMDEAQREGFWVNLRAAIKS
Sequence (Q9Y2C9 32-796 partner): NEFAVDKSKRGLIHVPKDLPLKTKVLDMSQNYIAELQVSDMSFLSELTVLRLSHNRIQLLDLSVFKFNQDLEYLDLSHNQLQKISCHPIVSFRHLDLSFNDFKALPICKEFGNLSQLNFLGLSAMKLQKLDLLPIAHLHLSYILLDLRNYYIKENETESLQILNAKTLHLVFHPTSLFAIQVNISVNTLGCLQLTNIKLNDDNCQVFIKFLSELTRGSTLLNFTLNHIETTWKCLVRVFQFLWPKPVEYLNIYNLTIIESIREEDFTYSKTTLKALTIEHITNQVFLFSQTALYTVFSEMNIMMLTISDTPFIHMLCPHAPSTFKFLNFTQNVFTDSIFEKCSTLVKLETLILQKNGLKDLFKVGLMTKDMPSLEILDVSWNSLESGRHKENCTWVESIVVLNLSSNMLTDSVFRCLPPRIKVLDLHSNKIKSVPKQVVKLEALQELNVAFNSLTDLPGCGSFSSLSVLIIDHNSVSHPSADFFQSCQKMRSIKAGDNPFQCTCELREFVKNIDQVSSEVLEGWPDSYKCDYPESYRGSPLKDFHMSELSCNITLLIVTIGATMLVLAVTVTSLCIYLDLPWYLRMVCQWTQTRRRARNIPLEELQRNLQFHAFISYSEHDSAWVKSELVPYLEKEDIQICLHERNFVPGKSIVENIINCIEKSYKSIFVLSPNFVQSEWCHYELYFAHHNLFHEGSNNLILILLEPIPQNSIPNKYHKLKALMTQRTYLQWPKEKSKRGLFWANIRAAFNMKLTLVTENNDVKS
endpoint.label: optical density (650 nm), Average

{"columns": ["compound", "test.system", "endpoint.label", "numeric.value"],
 "data": [
  ["CCCCCCCCCCCCCC[C@H](C)C(=O)OC[C@H](CSC[C@H](N)C(=O)N[C@@H](CO)C(=O)NCCOCCOCCOCCOCCOCCOCCOCCOCCOCCOCCOCCOCCOCCOCCOCCOCCOCCOCCOCCOCCOCCOCCOCCOCCOCCOCCOCCOCCC(=O)NCC(N)=O)OC(=O)[C@@H](C)CCCCCCCCCCCCCC [B8]", "human TLR2 (Homo sapiens, UniProt O60603)", "optical density (650 nm), Average", 2.243]
]}
